# Test name: LD 50 Mouse
# Cond: in vivo, iv, dihydrochloride
Endpoint label: LD50

Qu. Item COc1cc(C(=O)OC(Cc2c(C)c3ccc(OC)c(OC)c3oc2=O)CN2CCN(CC(=O)Nc3c(C)cccc3C)CC2)cc(OC)c1OC (stereo not shown) has what recorded LD50?
Ans. > 400 mg/kg

FYI, the data here is from patent US3959281A.
